Provide the recorded Barnyardgrass plant response rating for the entries that follow.
# System: barnyardgrass (Echinochloa crus-galli)
# method_notes: Test A postemergence, visual injury rating 0-100
# Type: in vivo
# condition_parameters: 500 g ai/ha, 0 to 100 scale
Give bare numbers.

| compound | system_name | Barnyardgrass plant response rating |
| --- | --- | --- |
| CC1=[N+]([O-])C(C(=O)Nc2cccc(F)c2F)C(c2cccc(C)n2)C1 (racemic) | barnyardgrass (Echinochloa crus-galli) | 0 |

Dear colleague, could you send me Barnyardgrass plant response rating for each of the items below? Thanks.
1. CC1=[N+]([O-])C(C(=O)Nc2cccc(F)c2F)C(c2cccc(C(F)(F)F)c2C)C1 (racemic)
2. CC1=[N+]([O-])C(C(=O)Nc2cccc(F)c2F)C(c2ccccc2)C1 (stereo not drawn) [Compound 97]
3. CC1=[N+]([O-])C(C(=O)Nc2cccc(F)c2F)C(c2cccc(Oc3ccc(F)cc3)c2)C1 (racemic)
4. CC1=[N+]([O-])C(C(=O)Nc2cccc(F)c2F)C(c2ccc(C(F)(F)F)c(C)c2)C1 (racemic)
5. CC1=[N+]([O-])C(C(=O)Nc2cccc(F)c2C#N)C(c2ccc(C(F)(F)F)cc2)C1 (racemic)
6. CC1=[N+]([O-])C(C(=O)Nc2cccc(F)c2F)C(c2ccc(C(F)(F)F)cn2)C1 (racemic)
7. CC1=[N+]([O-])C(C(=O)Nc2cccc(F)n2)C(c2ccc(C(F)(F)F)cc2)C1 (racemic)

90
90
30
90
70
50
90

// returns reported Barnyardgrass plant response rating for input CC1=[N+]([O-])C(C(=O)Nc2cccc(F)c2F)C(c2ccc(C)c(Cl)c2)C1 (racemic) 90

###

# System: ragweed (common ragweed, Ambrosia elatior)
# method_notes: Test A postemergence, visual injury rating 0-100
# Type: in vivo
# condition_parameters: 125 g ai/ha, 0 to 100 scale
Provide the recorded Ragweed plant response rating for the entries that follow.

Some solved cases for reference:
| compound | value |
| --- | --- |
| CC1=[N+]([O-])C(C(=O)Nc2cccc(F)c2F)C(c2cc(C)n(Cc3ccc(Cl)cc3)c(=O)c2)C1 (racemic) [Compound 86] | 0 |
| CC1=[N+]([O-])C(C(=O)Nc2cccc(F)c2F)C(c2ccc(Cl)c(C(F)(F)F)c2)C1 (racemic) [Compound 104] | 20 |
| CC1=[N+]([O-])C(C(=O)Nc2cccc(F)c2F)C(c2cccc(C#N)c2)C1 (racemic) [Compound 23] | 0 |
| CC1=[N+]([O-])C(C(=O)Nc2cccc(F)c2F)C(c2ccc(F)c(Oc3ccc(F)cn3)c2)C1 (racemic) [Compound 48] | 30 |
| CC1=[N+]([O-])C(C(=O)Nc2cccc(F)c2F)C(c2cccc(Cl)c2F)C1 (centres unmarked) [Compound 99] | 0 |

Dear colleague, could you send me Ragweed plant response rating for each of the items below? Thanks.
1. CC1=[N+]([O-])[C@H](C(=O)Nc2cccc(F)c2F)[C@@H](c2ccc(C(F)F)cc2)C1 (relative stereo) [Compound 93]
2. CC1=[N+]([O-])C(C(=O)Nc2cccc(F)c2F)C(c2cc(F)ccc2C)C1 (racemic) [Compound 81]
3. CC1=[N+]([O-])C(C(=O)Nc2cccc(F)c2F)C(c2ccccc2)C1 (centres unmarked) [Compound 97]
4. CC1=[N+]([O-])C(C(=O)Nc2cccc(F)c2F)C(c2cc(C)cc(C)c2)C1 (racemic) [Compound 112]
5. CC1=[N+]([O-])C(C(=O)Nc2cccc(F)c2F)C(c2ccc(C(F)(F)F)nc2)C1 (racemic) [Compound 60]
6. CC1=[N+]([O-])C(C(=O)Nc2cccc(F)c2F)C(c2c(F)cccc2Cl)C1 (racemic) [Compound 14]
7. CC1=[N+]([O-])C(C(=O)Nc2cccc(F)c2F)C(c2ccc(C)c(C)c2)C1 (racemic) [Compound 24]
8. CC1=[N+]([O-])C(C(=O)Nc2cccc(F)c2F)C(c2cccc(C3OCCO3)c2)C1 (racemic) [Compound 105]

[0, 0, 0, 0, 0, 0, 20, 0]

// returns reported Ragweed plant response rating for input CC1=[N+]([O-])C(C(=O)Nc2cccc(F)c2F)C(c2ccc(F)cc2)C1 (racemic) [Compound 9] 0

###

# System: barnyardgrass (Echinochloa crus-galli)
# method_notes: Test A postemergence, visual injury rating 0-100
# Type: in vivo
# condition_parameters: 500 g ai/ha, 0 to 100 scale
experimental_endpoint: Barnyardgrass plant response rating
Numbers only.

Some solved cases for reference:
| compound | experimental_endpoint | value |
| --- | --- | --- |
| CC1=[N+]([O-])C(C(=O)Nc2cccc(F)c2F)C(c2cc(C)cc(C)c2)C1 (racemic) | Barnyardgrass plant response rating | 90 |
| CC1=[N+]([O-])C(C(=O)Nc2cccc(F)c2F)C(c2cc(C)ccc2C)C1 (racemic) | Barnyardgrass plant response rating | 80 |
| CC1=[N+]([O-])[C@H](C(=O)Nc2ccc(F)nc2F)[C@@H](c2ccc(C(F)(F)F)cc2)C1 (relative stereo) | Barnyardgrass plant response rating | 70 |

// returns reported Barnyardgrass plant response rating for input CC1=[N+]([O-])[C@@H](C(=O)Nc2cccc(F)c2F)[C@H](c2ccc(C(F)(F)F)cc2)C1 (relative stereo) 90

###

Provide the recorded Foxtail, Giant plant response rating (0 to 100 scale) for the entries that follow.
# Test system: foxtail, giant (giant foxtail, Setaria faberii)
# method_notes: Test A preemergence, visual injury rating 0-100
# Assay type: in vivo
# condition_parameters: 500 g ai/ha
Give bare numbers.

Some solved cases for reference:
| compound | system_name | value |
| --- | --- | --- |
| CC1=[N+]([O-])C(C(=O)Nc2cccc(F)c2F)C(c2cccc(C(F)(F)F)n2)C1 (centres unmarked) | foxtail, giant (giant foxtail, Setaria faberii) | 90 |
| CC(C)C1=[N+]([O-])C(C(=O)Nc2cccc(F)c2F)C(c2ccc(C(F)(F)F)cc2)C1 (racemic) | foxtail, giant (giant foxtail, Setaria faberii) | 0 |
| CC1=[N+]([O-])C(C(=O)Nc2cccc(F)c2F)C(c2ccc(F)c(C(F)(F)F)c2)C1 (racemic) | foxtail, giant (giant foxtail, Setaria faberii) | 90 |

Dear colleague, could you send me Foxtail, Giant plant response rating (0 to 100 scale) for each of the items below? Thanks.
1. CC1=[N+]([O-])C(C(=O)Nc2cccc(F)c2F)C(c2cc(F)ccc2C)C1 (racemic)
2. CC1=[N+]([O-])C(C(=O)Nc2cccc(F)c2F)C(c2cc(F)cc(Oc3ccc(Cl)nc3)c2)C1 (racemic)
3. CC1=[N+]([O-])C(C(=O)Nc2cccc(F)c2F)C(c2cc(C)cc(CF)c2)C1 (racemic)
4. CC1=[N+]([O-])C(C(=O)Nc2cccc(F)c2F)C(c2cc(C)cc(F)c2)C1 (racemic)
5. CC1=[N+]([O-])C(C(=O)Nc2cccc(F)c2F)C(c2cc(C)cc(C)c2)C1 (racemic)

90
90
100
100
100

###

# System: barnyardgrass (Echinochloa crus-galli)
# method_notes: Test B flooded paddy test, visual rating 0-100
# condition_parameters: Flood, 250 g ai/ha, applied to paddy water, rated after 13 to 15 days
Please note: Barnyardgrass plant response rating (0 to 100 scale) exactly at 60 is condition not met. Only values below 60 get condition met.

Please review the entries below; each comes with its answer.
| compound | class_label |
| --- | --- |
| CC1=[N+]([O-])C(C(=O)Nc2cccc(F)c2F)C(c2ccc(Cl)c(C(F)(F)F)c2)C1 (racemic) [Compound 104] | condition met |
| CC1=[N+]([O-])C(C(=O)Nc2ccccc2S(C)(=O)=O)C(c2ccc(C(F)(F)F)cc2)C1 (racemic) [Compound 43] | condition met |
| CC1=[N+]([O-])[C@H](C(=O)Nc2cccc(F)c2F)[C@@H](c2ccc(C(F)(F)F)c(F)c2)C1 (relative stereo) [Compound 61] | condition not met |
| CC1=[N+]([O-])C(C(=O)Nc2cccc(F)c2F)C(c2cccc3c2CCC3)C1 (racemic) [Compound 118] | condition not met |
| CC1=[N+]([O-])C(C(=O)Nc2cccc(F)c2F)C(c2cccc(Br)c2)C1 (racemic) [Compound 19] | condition not met |

Does the reported Barnyardgrass plant response rating (0 to 100 scale) of CC1=[N+]([O-])[C@H](C(=O)Nc2cccc(F)c2F)[C@@H](c2ccc(C(F)(F)F)cc2)C1 [Compound 30] stay below 60? condition not met

Does the reported Barnyardgrass plant response rating (0 to 100 scale) of CC1=[N+]([O-])C(C(=O)Nc2cccc(F)c2F)C(c2ccc(F)c(Oc3ccc(F)cn3)c2)C1 (racemic) [Compound 48] stay below 60? condition met

Does the reported Barnyardgrass plant response rating (0 to 100 scale) of CC1=[N+]([O-])[C@H](C(=O)Nc2cccc(F)c2F)[C@@H](c2ccc(C)cc2)C1 [Compound 42] stay below 60? condition not met

Does the reported Barnyardgrass plant response rating (0 to 100 scale) of CC1=[N+]([O-])C(C(=O)Nc2cccc(F)c2F)C(c2ccccc2)C1 (racemic) [Compound 16] stay below 60? condition not met

Does the reported Barnyardgrass plant response rating (0 to 100 scale) of CC1=[N+]([O-])C(C(=O)Nc2ccc(F)cc2F)C(c2ccc(C(F)(F)F)cc2)C1 (racemic) [Compound 46] stay below 60? condition met

Does the reported Barnyardgrass plant response rating (0 to 100 scale) of CC1=[N+]([O-])[C@@H](C(=O)Nc2cccc(F)c2F)[C@H](c2ccc(C(F)(F)F)cc2)C1 (relative stereo) [Compound 2] stay below 60? condition not met
